Numbers sourced from ChEMBL document CHEMBL1177708.

- system-name: Prostaglandin G/H synthase 2 (Homo sapiens) (UniProt P35354)
- Sequence (P35354 whole entry): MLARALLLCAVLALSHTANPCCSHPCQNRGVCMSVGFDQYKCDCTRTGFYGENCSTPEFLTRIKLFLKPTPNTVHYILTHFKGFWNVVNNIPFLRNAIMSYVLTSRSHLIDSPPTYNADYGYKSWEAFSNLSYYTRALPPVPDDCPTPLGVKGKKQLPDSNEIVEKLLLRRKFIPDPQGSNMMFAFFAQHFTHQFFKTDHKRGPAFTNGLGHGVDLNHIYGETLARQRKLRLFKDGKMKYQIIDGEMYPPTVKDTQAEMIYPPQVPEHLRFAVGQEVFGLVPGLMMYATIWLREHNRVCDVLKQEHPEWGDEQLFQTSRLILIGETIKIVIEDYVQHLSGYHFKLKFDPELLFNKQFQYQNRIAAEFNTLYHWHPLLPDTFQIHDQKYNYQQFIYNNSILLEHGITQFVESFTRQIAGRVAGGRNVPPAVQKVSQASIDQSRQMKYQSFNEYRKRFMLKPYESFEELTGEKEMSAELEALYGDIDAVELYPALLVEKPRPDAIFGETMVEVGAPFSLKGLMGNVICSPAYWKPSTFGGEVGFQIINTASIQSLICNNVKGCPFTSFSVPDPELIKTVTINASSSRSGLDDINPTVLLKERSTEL
- test-summary: Inhibition of human recombinant COX2 assessed as residual activity at 10 uM after 5 mins
recorded-metric: Activity (%)

See these solved cases before continuing.
[
  {
    "compound": "CCCCC(Sc1nc(OCCC2CC2)cc(OCCC2CC2)n1)C(=O)O (stereo not given)",
    "system-name": "Prostaglandin G/H synthase 2 (Homo sapiens) (UniProt P35354)",
    "recorded-metric": "Activity",
    "units-of-measure": "%",
    "result-number": 87.9
  },
  {
    "compound": "CCCCC(Sc1nc(OCCc2ccccc2)cc(OCCc2ccccc2)n1)C(=O)O (stereo not given)",
    "system-name": "Prostaglandin G/H synthase 2 (Homo sapiens) (UniProt P35354)",
    "recorded-metric": "Activity",
    "units-of-measure": "%",
    "result-number": 90.9
  },
  {
    "compound": "CCCCC(Sc1nc(OCCCCc2ccccc2)cc(OCCCCc2ccccc2)n1)C(=O)O (stereo not given)",
    "system-name": "Prostaglandin G/H synthase 2 (Homo sapiens) (UniProt P35354)",
    "recorded-metric": "Activity",
    "units-of-measure": "%",
    "result-number": 53.9
  },
  {
    "compound": "CCCC[C@H](Sc1nc(OCCc2ccccc2)cc(OCCc2ccccc2)n1)C(=O)O",
    "system-name": "Prostaglandin G/H synthase 2 (Homo sapiens) (UniProt P35354)",
    "recorded-metric": "Activity",
    "units-of-measure": "%",
    "result-number": 92.8
  }
]

[a] CCCCC(Sc1nc(OCCC2CCCC2)cc(OCCC2CCCC2)n1)C(=O)O (stereo not given)
[b] CCCCC(Sc1nc(OCCC2CCCCCC2)cc(OCCC2CCCCCC2)n1)C(=O)O (stereo not given)
Request: In terms of reported Activity, does a or b have the smaller number? # reply format: chosen label
Response: b
(b: 50.1%, a: 84.7%)

====

- test-summary: Modulation of gamma-secretase-mediated cleavage of human APP expressed in CHO cells with human presenilin-1 assessed as activation of amyloid beta38 production after 24 hrs by ELISA
- Assay type: cell-based
pEC50: −log10 of the molar value.
recorded-metric: pEC50

[
  {
    "compound": "CCCCC(Sc1nc(OCCc2ccsc2)cc(OCCc2ccsc2)n1)C(=O)O (stereo not given)",
    "pEC50": 4.76
  },
  {
    "compound": "CCCCC(Sc1nc(OCCc2ccc(OC)cc2)cc(OCCc2ccc(OC)cc2)n1)C(=O)O (stereo not given)",
    "pEC50": 5.21
  },
  {
    "compound": "CCCCC(Sc1nc(OCc2ccccc2)cc(OCc2ccccc2)n1)C(=O)O (stereo not given)",
    "pEC50": 4.62
  },
  {
    "compound": "CCCCC(Sc1nc(OCCC2CCCCCC2)cc(OCCC2CCCCCC2)n1)C(=O)O (stereo not given)",
    "pEC50": 5.72
  },
  {
    "compound": "CCCCC(Sc1nc(OCCc2ccccc2)cc(OCCc2ccccc2)n1)C(=O)O (stereo not given)",
    "pEC50": 4.95
  }
]

[P] CCCCCCC(Sc1nc(OCCc2ccccc2)cc(OCCc2ccccc2)n1)C(=O)O (stereo not given)
[Q] CCCCC(Sc1nc(OCCC2CCCCC2)cc(OCCC2CCCCC2)n1)C(=O)O (stereo not given)
[R] CCCC[C@@H](Sc1nc(OCCc2ccccc2)cc(OCCc2ccccc2)n1)C(=O)O
[S] CCCC[C@H](Sc1nc(OCCc2ccccc2)cc(OCCc2ccccc2)n1)C(=O)O
Request: Order by pEC50, ascending. Reply with the item labels sorted in the order that was asked for.
Response: P, S, R, Q

====

Here we list compounds with their recorded IC50 when tested on Prostaglandin G/H synthase 1 (Ovis aries, UniProt P05979).
Sequence (P05979 whole entry): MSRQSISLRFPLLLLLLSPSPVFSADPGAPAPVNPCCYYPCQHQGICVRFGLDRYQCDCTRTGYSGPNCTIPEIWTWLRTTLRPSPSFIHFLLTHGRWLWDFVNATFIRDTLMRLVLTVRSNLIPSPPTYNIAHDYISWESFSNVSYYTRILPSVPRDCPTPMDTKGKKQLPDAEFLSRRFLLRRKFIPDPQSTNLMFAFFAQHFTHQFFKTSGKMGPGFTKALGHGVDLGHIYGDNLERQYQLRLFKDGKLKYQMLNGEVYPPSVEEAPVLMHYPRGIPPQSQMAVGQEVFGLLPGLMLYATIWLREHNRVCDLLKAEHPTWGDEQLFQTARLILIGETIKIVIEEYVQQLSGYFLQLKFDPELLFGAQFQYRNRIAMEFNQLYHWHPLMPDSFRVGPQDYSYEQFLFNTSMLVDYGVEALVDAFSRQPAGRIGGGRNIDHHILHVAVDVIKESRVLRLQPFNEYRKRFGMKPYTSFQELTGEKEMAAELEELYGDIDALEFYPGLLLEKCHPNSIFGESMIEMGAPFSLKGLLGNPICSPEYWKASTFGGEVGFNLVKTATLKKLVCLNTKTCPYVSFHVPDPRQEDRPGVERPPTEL
recorded-metric: IC50 (µM)

[
  {
    "compound": "CC(C(=O)O)c1ccc2c(c1)[nH]c1ccc(Cl)cc12 (stereo not given) [CARPROFEN]",
    "units-of-measure": "µM",
    "IC50": 13
  },
  {
    "compound": "CCCCC(Sc1nc(OCCc2ccccc2)cc(OCCc2ccccc2)n1)C(=O)O (stereo not given)",
    "units-of-measure": "µM",
    "IC50": 18.7
  },
  {
    "compound": "CCCCC(Sc1nc(OCCc2ccc(C(F)(F)F)cc2)cc(OCCc2ccc(C(F)(F)F)cc2)n1)C(=O)O (stereo not given)",
    "units-of-measure": "µM",
    "IC50": 16.9
  }
]

[I] CCCCC(Sc1nc(OCCC2CCCCC2)cc(OCCC2CCCCC2)n1)C(=O)O (stereo not given)
[II] CSc1ccc(/C=C2/C(C)=C(CC(=O)O)c3cc(F)ccc32)cc1 [SULINDAC SULFIDE]
Request: In terms of reported IC50, does I or II have the smaller number? # reply format: chosen label
Response: II
(II: 0.05 µM, I: 13.4 µM)

====

- test-summary: cells
- particulars: CHO, 24 h
- Description: Modulation of gamma-secretase-mediated cleavage of human APP expressed in CHO cells with human presenilin-1 assessed as inhibition of amyloid beta42 production after 24 hrs by ELISA
recorded-metric: IC50 (µM)

See these solved cases before continuing.
[
  {
    "compound": "CCCCC(Sc1nc(OCCc2ccc(C)cc2)cc(OCCc2ccc(C)cc2)n1)C(=O)O (stereo unspecified)",
    "recorded-metric": "IC50",
    "result-number": 13
  },
  {
    "compound": "CCCCC(Sc1nc(OCCc2ccc(OC)cc2)cc(OCCc2ccc(OC)cc2)n1)C(=O)O (stereo unspecified)",
    "recorded-metric": "IC50",
    "result-number": 19.3
  },
  {
    "compound": "CSc1ccc(/C=C2/C(C)=C(CC(=O)O)c3cc(F)ccc32)cc1 [SULINDAC SULFIDE]",
    "recorded-metric": "IC50",
    "result-number": 34
  }
]

[a] CCCC[C@@H](Sc1nc(OCCc2ccccc2)cc(OCCc2ccccc2)n1)C(=O)O
[b] CCCCC(Sc1nc(OCCC2CCCCC2)cc(OCCC2CCCCC2)n1)C(=O)O (stereo unspecified)
Request: Kindly identify which of a and b has the larger recorded IC50 value. # reply format: chosen label
Response: a

[1] O=C(O)C(Sc1nc(OCCc2ccccc2)cc(OCCc2ccccc2)n1)c1ccccc1 (stereo unspecified)
[2] CCCCC(Sc1nc(OCCc2ccc(OC(F)(F)F)cc2)cc(OCCc2ccc(OC(F)(F)F)cc2)n1)C(=O)O (stereo unspecified)
[3] CCCCC(Sc1nc(OCCC2CCCC2)cc(OCCC2CCCC2)n1)C(=O)O (stereo unspecified)
Request: Hey, quick one: sort these by IC50, largest value first please. Reply with the item labels sorted in the order that was asked for.
Response: 1, 3, 2

====

- system-name: Peroxisome proliferator-activated receptor delta (Homo sapiens) (UniProt Q03181)
- Sequence (Q03181 whole entry, the tested form may be a part): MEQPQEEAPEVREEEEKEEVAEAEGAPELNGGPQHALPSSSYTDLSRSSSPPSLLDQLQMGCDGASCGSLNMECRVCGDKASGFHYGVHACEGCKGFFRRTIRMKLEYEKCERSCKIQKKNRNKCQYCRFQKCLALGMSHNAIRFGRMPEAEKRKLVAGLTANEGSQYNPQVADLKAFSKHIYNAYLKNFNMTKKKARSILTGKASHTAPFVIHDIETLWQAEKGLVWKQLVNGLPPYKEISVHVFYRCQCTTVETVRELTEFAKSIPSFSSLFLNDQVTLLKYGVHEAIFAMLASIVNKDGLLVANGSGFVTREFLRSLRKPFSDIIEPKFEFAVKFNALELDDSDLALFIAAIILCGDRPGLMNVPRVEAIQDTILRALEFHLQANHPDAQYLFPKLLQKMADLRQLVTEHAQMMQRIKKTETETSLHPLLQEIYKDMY
- test-summary: Agonist activity at human PPARdelta-LBD expressed in COS7 cells co-transfected with Gal4 at 10 uM by luciferase based transactivation assay
- Assay type: functional, cell-based
- particulars: COS-7
Activity calls are given as the source filed them. The rule behind the calls is not given here.
recorded-metric: Activity

See these solved cases before continuing.
[
  {
    "compound": "CCCCCCC(Sc1nc(OCCc2ccccc2)cc(OCCc2ccccc2)n1)C(=O)O (stereo not given)",
    "result": "inactive"
  },
  {
    "compound": "CCCCC(Sc1nc(OCCCc2ccccc2)cc(OCCCc2ccccc2)n1)C(=O)O (stereo not given)",
    "result": "inactive"
  },
  {
    "compound": "CCCCC(Sc1nc(OCCc2ccc(C)cc2)cc(OCCc2ccc(C)cc2)n1)C(=O)O (stereo not given)",
    "result": "inactive"
  },
  {
    "compound": "O=C(O)CSc1nc(OCCc2ccccc2)cc(OCCc2ccccc2)n1",
    "result": "inactive"
  },
  {
    "compound": "CCCCC(Sc1nc(OCCC2CCCC2)cc(OCCC2CCCC2)n1)C(=O)O (stereo not given)",
    "result": "inactive"
  },
  {
    "compound": "CCCCC(Sc1nc(OCCc2ccsc2)cc(OCCc2ccsc2)n1)C(=O)O (stereo not given)",
    "result": "inactive"
  },
  {
    "compound": "CCCC[C@@H](Sc1nc(OCCc2ccccc2)cc(OCCc2ccccc2)n1)C(=O)O",
    "result": "inactive"
  },
  {
    "compound": "O=C(O)C(Sc1nc(OCCc2ccccc2)cc(OCCc2ccccc2)n1)c1ccccc1 (stereo not given)",
    "result": "inactive"
  }
]

Request: Please list Activity recorded for the compound CCCCC(Sc1nc(OCCc2ccccc2)cc(OCCc2ccccc2)n1)C(=O)O (stereo not given)
Response: inactive

Request: Please list Activity recorded for the compound CCCCC(Sc1nc(OCc2ccccc2)cc(OCc2ccccc2)n1)C(=O)O (stereo not given)
Response: inactive
